readout_kind: melting point (°C)
Output spec: scalar in °C, unitless text.

Before answering, review these 2 worked examples.
                             smiles_string   readout_kind  endpoint_unit  reported_result
0  Cc1cc(Nc2nc(-c3ccccc3)nc3ncccc23)n[nH]1  melting point             °C              234
1  Cc1cc(Nc2nc(-c3ccccc3)nc3cnccc23)n[nH]1  melting point             °C              225

Requested field: melting point. Item: `Brc1cn[nH]c1Nc1nc(-c2ccccc2)nc2ccccc12`
189

Would you kindly share the measured melting point for `OC1(c2ccccc2)CCN(c2nc(Nc3cc(C4CC4)n[nH]3)c3ccccc3n2)CC1` ?
131

Looking for the measured melting point of `c1ccc2c(c1)CN(c1nc(Nc3cc(C4CC4)n[nH]3)c3ccccc3n1)C2` , can you help?
237

====

Each item that follows carries a reported melting point.

                                   compound  reported_result
0  CC(C)(C)c1cc(Nc2nc(-c3ccccc3)nc3ccccc23)[nH]n1 [III-68]    136 to 137 °C

Reported melting point for c1ccc(-c2nc(Nc3ccn[nH]3)c3ccccc3n2)cc1 [III-63] : what is it?
247 to 249 °C

I am curious: what melting point value has been reported for NCCCc1cc(Nc2nc(-c3ccccc3)nc3ccccc23)[nH]n1 [III-79] ?
205 to 207 °C

====

Below, each entry is listed alongside its reported pKi.
tested_on: GSK-3β (AA 1-420) (Homo sapiens)
pKi: −log10 of the molar value.

>>> print(df.to_string())
                              smiles_string  readout_kind  reported_result
0  CC(C)CNC(=O)c1cc(Nc2nc(-c3ccccc3)nc3ccccc23)[nH]n1           pKi     4.70 to 6.00
1  CNC(=O)c1cc(Nc2nc(-c3ccccc3)nc3ccccc23)[nH]n1           pKi     4.70 to 6.00
2  FC(F)(F)c1ccccc1-c1nc(Nc2n[nH]c3ccccc23)cc(-c2ccncc2)n1           pKi           > 7.00

Please provide the recorded pKi for `Fc1cccc2c(Nc3nc(-c4ccccc4)nc4ccccc34)[nH]nc12` , tested on GSK-3β (AA 1-420) (Homo sapiens).
6.00 to 7.00

Query for GSK-3β (AA 1-420) (Homo sapiens): what pKi does the record show for `FC(F)(F)c1cccc(-c2nc(Nc3[nH]nc4ccccc34)c3ccccc3n2)c1` ?
6.00 to 7.00

====

tested_on: GSK-3β (AA 1-420) (Homo sapiens, UniProt P49841)
Sequence (P49841 whole entry, the tested form may be a part): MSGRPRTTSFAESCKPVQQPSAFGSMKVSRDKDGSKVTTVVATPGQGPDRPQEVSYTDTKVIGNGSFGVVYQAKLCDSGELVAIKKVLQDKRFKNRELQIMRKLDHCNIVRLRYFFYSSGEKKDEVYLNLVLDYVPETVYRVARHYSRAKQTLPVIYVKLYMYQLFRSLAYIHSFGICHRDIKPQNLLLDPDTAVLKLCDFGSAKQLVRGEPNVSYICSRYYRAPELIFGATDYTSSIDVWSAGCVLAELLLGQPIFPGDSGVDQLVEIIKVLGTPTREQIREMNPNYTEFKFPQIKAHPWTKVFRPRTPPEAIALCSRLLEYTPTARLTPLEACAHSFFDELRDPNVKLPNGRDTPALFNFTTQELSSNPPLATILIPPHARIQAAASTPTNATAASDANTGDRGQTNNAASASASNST
pKi: −log10 of the molar value.
List of pKi values.

>>> print(df.to_string())
                                   molecule  reported_result
0  Fc1ccc2[nH]nc(Nc3nc(-c4ccccc4C(F)(F)F)nc4c3CCCCCC4)c2c1           > 7.00

Form field: reported pKi of `Cc1nc(-c2ccccc2Cl)nc(Nc2n[nH]c3ccccc23)c1C`
> 7.00

Fill in the blank: the reported pKi of `Fc1ccc2[nH]nc(Nc3nc(-c4ccccc4Cl)nc4ccccc34)c2c1` is ____.
> 7.00

I'd like to know its pKi. The molecule in question is `Fc1cccc2c(Nc3nc(-c4ccccc4C(F)(F)F)nc4c3CCCC4)n[nH]c12`
> 7.00

pKi for `FC(F)(F)c1ccccc1-c1nc2c(c(Nc3n[nH]c4ccccc34)n1)CCCC2` ?
> 7.00

For the molecule shown here, CC1CCCCN1c1nc(Nc2n[nH]c3ccccc23)c2ccccc2n1 (stereo not drawn) , give the reported pKi.
4.70 to 6.00
